We begin with a simple list: items and their reported Activity.
- Tested on: Echinochloa crus-galli
- test.protocol: Herbicidal activity against Echinochloa crus-galli (barnyard grass) at 30 g/hm2 postemergent application after 2 weeks
- Assay type: functional
result.type: Activity (%)

[
  {
    "chemical.structure": "CC(C)OC(=O)/C=C/COC(=O)c1cc(Oc2ccc(C(F)(F)F)cc2Cl)ccc1[N+](=O)[O-]",
    "recorded.result": 30
  },
  {
    "chemical.structure": "CCOC(=O)/C=C/COC(=O)c1cc(Oc2ccc(C(F)(F)F)cc2Cl)ccc1[N+](=O)[O-]",
    "recorded.result": 40
  },
  {
    "chemical.structure": "CCCOC(=O)/C=C/COC(=O)c1cc(Oc2ccc(C(F)(F)F)cc2Cl)ccc1[N+](=O)[O-]",
    "recorded.result": 10
  },
  {
    "chemical.structure": "COC(=O)/C=C/COC(=O)c1cc(Oc2ccc(C(F)(F)F)cc2Cl)ccc1[N+](=O)[O-]",
    "recorded.result": 10
  },
  {
    "chemical.structure": "CCCCOC(=O)/C=C/COC(=O)c1cc(Oc2ccc(C(F)(F)F)cc2Cl)ccc1[N+](=O)[O-]",
    "recorded.result": 10
  }
]

====

- Test system: Digitaria sanguinalis
- test.protocol: Herbicidal activity against Digitaria sanguinalis (hairy crabgrass) at 120 g/hm2 postemergent application after 2 weeks
- Assay type: functional

[
  {
    "chemical.structure": "CC(C)OC(=O)/C=C/COC(=O)c1cc(Oc2ccc(C(F)(F)F)cc2Cl)ccc1[N+](=O)[O-]",
    "endpoint.unit": "%",
    "Activity": 85
  },
  {
    "chemical.structure": "CCCCOC(=O)/C=C/COC(=O)c1cc(Oc2ccc(C(F)(F)F)cc2Cl)ccc1[N+](=O)[O-]",
    "endpoint.unit": "%",
    "Activity": 80
  },
  {
    "chemical.structure": "CCOC(=O)/C=C/COC(=O)c1cc(Oc2ccc(C(F)(F)F)cc2Cl)ccc1[N+](=O)[O-]",
    "endpoint.unit": "%",
    "Activity": 80
  },
  {
    "chemical.structure": "COC(=O)/C=C/COC(=O)c1cc(Oc2ccc(C(F)(F)F)cc2Cl)ccc1[N+](=O)[O-]",
    "endpoint.unit": "%",
    "Activity": 80
  },
  {
    "chemical.structure": "CCCOC(=O)/C=C/COC(=O)c1cc(Oc2ccc(C(F)(F)F)cc2Cl)ccc1[N+](=O)[O-]",
    "endpoint.unit": "%",
    "Activity": 80
  }
]

====

This listing pairs compounds with measured Activity.
- Tested on: Abutilon theophrasti
- test.protocol: Herbicidal activity against Abutilon theophrasti (velvetleaf) at 480 g/hm2 postemergent application after 2 weeks
- Type: functional

[
  {
    "chemical.structure": "CCCCOC(=O)/C=C/COC(=O)c1cc(Oc2ccc(C(F)(F)F)cc2Cl)ccc1[N+](=O)[O-]",
    "tested.on": "Abutilon theophrasti",
    "Activity (%)": 95
  },
  {
    "chemical.structure": "CCCOC(=O)/C=C/COC(=O)c1cc(Oc2ccc(C(F)(F)F)cc2Cl)ccc1[N+](=O)[O-]",
    "tested.on": "Abutilon theophrasti",
    "Activity (%)": 100
  },
  {
    "chemical.structure": "COC(=O)/C=C/COC(=O)c1cc(Oc2ccc(C(F)(F)F)cc2Cl)ccc1[N+](=O)[O-]",
    "tested.on": "Abutilon theophrasti",
    "Activity (%)": 100
  },
  {
    "chemical.structure": "CC(C)OC(=O)/C=C/COC(=O)c1cc(Oc2ccc(C(F)(F)F)cc2Cl)ccc1[N+](=O)[O-]",
    "tested.on": "Abutilon theophrasti",
    "Activity (%)": 100
  },
  {
    "chemical.structure": "CCOC(=O)/C=C/COC(=O)c1cc(Oc2ccc(C(F)(F)F)cc2Cl)ccc1[N+](=O)[O-]",
    "tested.on": "Abutilon theophrasti",
    "Activity (%)": 100
  }
]

====

- Test system: Echinochloa crus-galli
- test.protocol: Herbicidal activity against Echinochloa crus-galli (barnyard grass) at 1000 g/hm2 postemergent application after 2 weeks
- Format: functional
Returns: string. Value is Criterion met if measured Activity is below 80%, and Criterion not met if it is greater than or equal to it.

[
  {
    "molecule": "CCOC(=O)/C=C(/OC(=O)c1cc(Oc2ccc(C(F)(F)F)cc2Cl)ccc1[N+](=O)[O-])C(F)(F)F",
    "label": "Criterion met"
  },
  {
    "molecule": "CCOC(=O)/C=C(\\C)COC(=O)c1cc(Oc2ccc(C(F)(F)F)cc2Cl)ccc1[N+](=O)[O-]",
    "label": "Criterion met"
  },
  {
    "molecule": "C=C(C(=O)OCC)C(C)OC(=O)c1cc(Oc2ccc(C(F)(F)F)cc2Cl)ccc1Cl (stereo not given)",
    "label": "Criterion not met"
  },
  {
    "molecule": "CCOC(=O)/C(C)=C(\\C)OC(=O)c1cc(Oc2ccc(C(F)(F)F)cc2Cl)ccc1[N+](=O)[O-]",
    "label": "Criterion met"
  },
  {
    "molecule": "CCOC(=O)/C=C(\\C)OC(=O)c1cc(Oc2ccc(C(F)(F)F)cc2Cl)ccc1Cl",
    "label": "Criterion not met"
  },
  {
    "molecule": "C/C(=C\\C(=O)OC(C)(C)C)OC(=O)c1cc(Oc2ccc(C(F)(F)F)cc2Cl)ccc1[N+](=O)[O-]",
    "label": "Criterion met"
  },
  {
    "molecule": "CCOC(=O)/C(C)=C(\\C)OC(=O)c1cc(Oc2ccc(C(F)(F)F)cc2Cl)ccc1Cl",
    "label": "Criterion met"
  },
  {
    "molecule": "C=CCOC(=O)/C=C/COC(=O)c1cc(Oc2ccc(C(F)(F)F)cc2Cl)ccc1[N+](=O)[O-]",
    "label": "Criterion met"
  },
  {
    "molecule": "C=CCOC(=O)/C=C(\\C)OC(=O)c1cc(Oc2ccc(C(F)(F)F)cc2Cl)ccc1[N+](=O)[O-]",
    "label": "Criterion met"
  },
  {
    "molecule": "C=C(C(=O)OCC)C(C)OC(=O)c1cc(Oc2ccc(C(F)(F)F)cc2Cl)ccc1[N+](=O)[O-] (stereo not given)",
    "label": "Criterion met"
  },
  {
    "molecule": "CCOC(=O)/C=C(\\C)OC(=O)c1cc(Oc2ccc(C(F)(F)F)cc2Cl)ccc1[N+](=O)[O-]",
    "label": "Criterion met"
  },
  {
    "molecule": "CCOC(=O)/C=C/COC(=O)c1cc(Oc2ccc(C(F)(F)F)cc2Cl)ccc1Cl",
    "label": "Criterion not met"
  },
  {
    "molecule": "CCC/C(=C\\C(=O)OCC)OC(=O)c1cc(Oc2ccc(C(F)(F)F)cc2Cl)ccc1[N+](=O)[O-]",
    "label": "Criterion met"
  },
  {
    "molecule": "C=C(COC(=O)c1cc(Oc2ccc(C(F)(F)F)cc2Cl)ccc1Cl)C(=O)OCCC",
    "label": "Criterion met"
  },
  {
    "molecule": "C=C(COC(=O)c1cc(Oc2ccc(C(F)(F)F)cc2Cl)ccc1Cl)C(=O)OC",
    "label": "Criterion met"
  },
  {
    "molecule": "O=C(O)c1cc(Oc2ccc(C(F)(F)F)cc2Cl)ccc1[N+](=O)[O-]",
    "label": "Criterion not met"
  },
  {
    "molecule": "CC/C(=C\\C(=O)OC)OC(=O)c1cc(Oc2ccc(C(F)(F)F)cc2Cl)ccc1[N+](=O)[O-]",
    "label": "Criterion met"
  },
  {
    "molecule": "C=C(COC(=O)c1cc(Oc2ccc(C(F)(F)F)cc2Cl)ccc1Cl)C(=O)OCC",
    "label": "Criterion not met"
  }
]

====

- Tested on: Digitaria sanguinalis
- test.protocol: Herbicidal activity against Digitaria sanguinalis (hairy crabgrass) at 200 g/hm2 postemergent application after 2 weeks
- Format: functional
Below, each entry is listed alongside its reported Activity.

[
  {
    "compound": "C=C(C(=O)OCC)C(C)OC(=O)c1cc(Oc2ccc(C(F)(F)F)cc2Cl)ccc1[N+](=O)[O-] (stereo not drawn)",
    "Activity": "70%"
  },
  {
    "compound": "COC(=O)/C=C(\\C)OC(=O)c1cc(Oc2ccc(C(F)(F)F)cc2Cl)ccc1[N+](=O)[O-]",
    "Activity": "80%"
  },
  {
    "compound": "CCOC(=O)/C(C)=C(\\C)OC(=O)c1cc(Oc2ccc(C(F)(F)F)cc2Cl)ccc1[N+](=O)[O-]",
    "Activity": "50%"
  },
  {
    "compound": "CCOC(=O)/C(C)=C(\\C)OC(=O)c1cc(Oc2ccc(C(F)(F)F)cc2Cl)ccc1Cl",
    "Activity": "25%"
  },
  {
    "compound": "CCOC(=O)/C=C(/OC(=O)c1cc(Oc2ccc(C(F)(F)F)cc2Cl)ccc1[N+](=O)[O-])C(F)(F)F",
    "Activity": "0%"
  },
  {
    "compound": "CCOC(=O)/C=C(\\C)OC(=O)c1cc(Oc2ccc(C(F)(F)F)cc2Cl)ccc1[N+](=O)[O-]",
    "Activity": "90%"
  },
  {
    "compound": "CC/C(=C\\C(=O)OC)OC(=O)c1cc(Oc2ccc(C(F)(F)F)cc2Cl)ccc1[N+](=O)[O-]",
    "Activity": "5%"
  },
  {
    "compound": "C=C(COC(=O)c1cc(Oc2ccc(C(F)(F)F)cc2Cl)ccc1Cl)C(=O)OC",
    "Activity": "25%"
  }
]
